System: hPBMCs
assay.explanation: Lymphocyte proliferation assay (T-cell proliferation of normal hPBMCs)
Type: cell-based
study.conditions: Homo sapiens, read-out: Stimulated hPBMC's IC50 (inhibition of cell proliferation)
Description: The assay method was designed as in references, The Journal of Immunology, 153, 1-9, (1994), and Clinical and Diagnostic Laboratory Immunology, 7, 687-692, (2000), the disclosure of which is incorporated by reference for the teaching of the assay. hPBMCs were obtained from healthy donors by centrifugation of heparinized venous blood over Ficoll/Hypaque solution (Histopaque-1077, Sigma, USA). […]

compound | output.unit | IC50
C/C=C/C(O)C(C)/C=C/C(=N\O)C(C)C(O)C(C)C1OC(=O)/C(OC)=C/C(C)=C/C(C)C(O)C(CC)C(O)C(C)C/C(C)=C/C=C/C1OC (stereo not shown) | nM | 3
